Listed compounds paired with reported IC50
tgt: USP28 (His-tagged USP28-FL-mammalian) (Homo sapiens)
Construct: Expression of USP28 (1-1077)-TEV-6*His (pTT5 vector); made in house; host or cells: Expi293f cells (pTT5 vector)
Sequence (Q96RU2 whole entry): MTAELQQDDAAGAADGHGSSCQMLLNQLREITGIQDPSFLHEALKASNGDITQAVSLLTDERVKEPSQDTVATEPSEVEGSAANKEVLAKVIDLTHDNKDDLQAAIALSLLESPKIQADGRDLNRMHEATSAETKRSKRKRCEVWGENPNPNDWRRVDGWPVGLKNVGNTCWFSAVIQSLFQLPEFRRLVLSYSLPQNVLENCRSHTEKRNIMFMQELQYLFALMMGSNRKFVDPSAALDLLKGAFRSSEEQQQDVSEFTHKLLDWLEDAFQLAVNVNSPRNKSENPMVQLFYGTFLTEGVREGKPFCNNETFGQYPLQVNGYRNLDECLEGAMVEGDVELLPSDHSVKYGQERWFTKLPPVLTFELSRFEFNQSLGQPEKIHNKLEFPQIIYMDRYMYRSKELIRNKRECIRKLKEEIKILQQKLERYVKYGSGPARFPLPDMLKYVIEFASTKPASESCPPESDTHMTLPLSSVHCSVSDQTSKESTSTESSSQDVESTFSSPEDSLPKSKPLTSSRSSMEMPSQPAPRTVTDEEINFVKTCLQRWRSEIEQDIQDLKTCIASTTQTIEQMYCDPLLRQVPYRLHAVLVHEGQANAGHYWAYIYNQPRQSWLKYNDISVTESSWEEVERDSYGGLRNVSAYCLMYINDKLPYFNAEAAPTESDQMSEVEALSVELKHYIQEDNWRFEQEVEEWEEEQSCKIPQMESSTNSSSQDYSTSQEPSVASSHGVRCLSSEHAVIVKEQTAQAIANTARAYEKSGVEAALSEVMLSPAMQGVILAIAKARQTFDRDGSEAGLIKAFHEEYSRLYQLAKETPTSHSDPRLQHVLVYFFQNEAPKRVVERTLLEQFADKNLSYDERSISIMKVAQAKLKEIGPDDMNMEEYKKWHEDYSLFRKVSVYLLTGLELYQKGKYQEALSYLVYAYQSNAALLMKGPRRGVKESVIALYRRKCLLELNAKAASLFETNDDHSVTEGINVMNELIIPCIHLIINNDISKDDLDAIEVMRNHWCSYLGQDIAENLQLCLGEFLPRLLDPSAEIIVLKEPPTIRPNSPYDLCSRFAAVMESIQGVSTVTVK
experimentalProtocol: Ubiquitin-Rhodamine 110 Assay for USP28 Activity, Example A-1(a)
Assay type: biochemical
conditionDetails: Ubiquitin-Rhodamine 110 assay, Example A-1(a); read-out: USP28 A-1(a) IC50 range
Text: Example A-1(a): Biochemical Assay: Ubiquitin-Rhodamine 110 Assay for USP28 Activity […] For assay formats Example A-1(a), A-1(b), and A-2, data were reported as percent inhibition compared with control wells based on the following equation: % inh=1−((FLU−AveLow)/(AveHigh−AveLow)) where FLU=measured Fluorescence, AveLow=average Fluorescence of no enzyme control (n=16), and AveHigh=average Fluorescence of DMSO control (n=16). […]

Example compounds with recorded IC50:
Cc1ccc2c(N)c(C(=O)N[C@H]3COc4cc(N5C[C@@H](N)CC[C@@H]5C(F)(F)F)ccc4C3)sc2n1	0.001 to 0.05 µM
CO[C@@H]1CCN(c2ccc3c(c2)OC[C@H](NC(=O)c2sc4nc(C)ccc4c2N)C3)C[C@H]1N	0.001 to 0.05 µM
Cc1ccc2c(N)c(C(=O)N[C@H]3COc4cc(N5CCNCC5)c(F)c(F)c4C3)sc2n1	0.001 to 0.05 µM
Cc1ccc2c(N)c(C(=O)N[C@H]3CCc4nc(N5C[C@@H](CF)[C@H](N)C5)ccc4C3)sc2n1	0.05 to 0.2 µM
Cc1ccc2c(N)c(C(=O)N[C@H]3CCc4nc(N5C[C@H](N)C6(C5)OCCO6)ccc4C3)sc2n1 (single isomer, unassigned)	0.2 to 2 µM
COC[C@@]1(C)CN(c2ccc3c(n2)CC[C@H](NC(=O)c2sc4nc(C)ccc4c2N)C3)C[C@@H]1N	0.05 to 0.2 µM

Return the recorded IC50 value; entry: N#Cc1c(N2CC3CCC(C2)N3)cc2c(c1F)C[C@@H](NC(=O)c1cnc3c(c1)[C@H]1C[C@H]1CN3)CO2 0.05 to 0.2 µM
